Experiment: TOR pathway LAP4-GFP level changes – S. cerevisiae, multiplex flow cytometry, MLPCN library, primary screen (AID 2023)
Conditions: 3 h, at 10 µM, median GFP as percent of DMSO wells
Hit rate of the full screen: of about 320,000 compounds, about 1,100 (0.34%) were called active.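 The calls were made as follows: active = GFP response vs DMSO above a set limit, about the screen mean plus 3 SD (cut at about 150% in these data); inconclusive = under 70 cell events counted for the yeast strain; inactive = the rest.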 Many of the other results were omitted from the sample, so actives are more common in it than they were.
Choose the fitting class; nothing outside active, inactive is accepted.

[ask] Identify the outcome logged in this assay for the compound shown: CC1(C)CC(=O)C2=C(C1)N=C1SCCC(=O)N1C2c1ccc(C(F)(F)F)cc1 (stereo not drawn)
[reply] inactive

[ask] Param item: C=CCOc1ccc(Cl)cc1CNCCCN1CCOCC1
[reply] inactive

[ask] Param item: Cc1ccc(C(=O)Nc2ccn(C)n2)cc1
[reply] inactive

[ask] Param item: CCC1Sc2ccc(S(=O)(=O)CCC(=O)NCc3cccs3)cc2NC1=O (stereo not drawn)
[reply] inactive

[ask] Param item: CC(CCc1ccc(O)cc1)NCc1ccc(Cl)cc1Cl (stereo not drawn)
[reply] inactive

[ask] Param item: O=C(NCCc1ccccc1Cl)C1CCC(=O)N(CCCc2ccccc2)C1 (stereo not drawn)
[reply] inactive

[ask] Param item: Cc1ccc(C(C[N+](=O)[O-])c2c(C)cc3ccccn23)cc1 (stereo not drawn)
[reply] inactive

[ask] Param item: CN(C)S(=O)(=O)c1cc(C(=O)Nc2ccn(C)n2)c(Cl)cc1Cl
[reply] active

[ask] Param item: CC(=O)Nc1ccc(NC(=O)COC(=O)C2CCC(C(C)(C)C)CC2)cc1 (stereo not drawn)
[reply] inactive

[ask] Param item: O=C(Nc1nccs1)c1cc(S(=O)(=O)N2CCOCC2)c(Cl)cc1Cl
[reply] inactive

[ask] Param item: CCOC(=O)c1cc2cc3ccccc3cc2oc1=O
[reply] inactive

[ask] Param item: Cc1cc(NC(=O)CCN2CCN(Cc3ccccc3)CC2)ccc1Br
[reply] inactive

[ask] Param item: O=c1[nH]c(SCc2cccc(F)c2)nc2ccccc12
[reply] inactive

[ask] Param item: O=C(NC1CCCCC1)c1ccc(-c2ccc(Cl)cc2)o1
[reply] inactive

[ask] Param item: COC(=O)c1ccc(-c2noc(CN(Cc3ccccn3)CC3CCCO3)n2)cc1 (stereo not drawn)
[reply] inactive

[ask] Param item: O=C(C1CCCO1)N1CCN(C(=S)Nc2cccc(Cl)c2)CC1 (stereo not drawn)
[reply] inactive

[ask] Param item: C/C(=N\NS(=O)(=O)c1ccc(Cl)cc1)c1ccc(NC(=O)c2ccco2)cc1
[reply] inactive

[ask] Param item: CCS(=O)(=O)c1cc([N+](=O)[O-])c(Sc2ccccc2N)s1
[reply] inactive

[ask] Param item: Cc1[nH][nH]c(=O)c1C(c1ccc(-c2ccc(Cl)cc2)o1)c1c(C)[nH][nH]c1=O
[reply] active

[ask] Param item: Nc1cc(N)nc(SCc2cccc(F)c2)n1
[reply] inactive

[ask] Param item: O=C(Nc1cc(-c2ccccc2)nn1-c1ccccc1F)c1ccc([N+](=O)[O-])cc1
[reply] inactive

[ask] Param item: Cc1ccc(C2CCN(C(=S)Nc3cccc(Cl)c3)C2)cc1 (stereo not drawn)
[reply] active

[ask] Param item: CCCCCCSc1ccc([C@@H]2[C@@H]3C(=O)N(CC)C(=O)[C@@H]3[C@]3(C(=O)OC)CCCCN23)cc1OC
[reply] inactive

###

Assay: TOR pathway LAP4-GFP level changes – S. cerevisiae, multiplex flow cytometry, MLPCN library, primary screen (AID 2023)
Settings: 3 h, at 10 µM, median GFP as percent of DMSO wells
Screen size: about 320,000 compounds; about 1,100 (0.34%) were called active.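 How the source made its calls: active means GFP response vs DMSO above a set limit, about the screen mean plus 3 SD (cut at about 150% in these data); inconclusive means under 70 cell events counted for the yeast strain; inactive means the rest.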 The full list was thinned out, with actives kept by preference.
Choose the fitting class; nothing outside active, inactive is accepted.

[ask] Identify the outcome logged in this assay for the compound shown: CN(c1cccc(NC(=O)Nc2ccc(Cl)cc2)c1)S(C)(=O)=O
[reply] inactive

[ask] Param item: O=C(Nc1cccnc1Cl)c1cc(-c2cccc(Cl)c2)on1
[reply] inactive

[ask] Param item: Cc1cc(N)n2nc(-c3ccc(C(C)(C)C)cc3)cc2n1
[reply] inactive

[ask] Param item: O=C(/C=C/Sc1ncn[nH]1)c1ccc(Cl)cc1
[reply] active

[ask] Param item: CCN1/C(=C\c2ccc3ccccc3[n+]2CC)Sc2cc(C)ccc21
[reply] active

[ask] Param item: Cc1cc(Oc2ccc(Cl)cc2)nc(SCC(=O)c2ccccc2)n1
[reply] inactive

[ask] Param item: CC(C)=CCC/C(C)=C/C(=O)O
[reply] inactive

[ask] Param item: O=C(Nc1ccccc1C(F)(F)F)c1cc(-c2ccc(O)cc2)on1
[reply] active

[ask] Param item: O=Cc1c(NCCCN2CCCC2=O)c2ccccc2[nH]c1=O
[reply] inactive

[ask] Param item: CCOC(=O)/C=c1\s/c(=C\c2ccc(C#N)cc2)c(=O)n1CC(=O)Nc1cccc(C)c1C
[reply] inactive

[ask] Param item: Nn1c(Cc2cccc3ccccc23)nnc1SCC(=O)N1CC(=O)Nc2ccccc21
[reply] inactive

[ask] Param item: O=C(NCCS(=O)(=O)c1ccc(Br)cc1)c1ccccc1Cl
[reply] inactive

[ask] Param item: CC(=O)Nc1ccc(N2C(=O)CC(Sc3nccc(C)n3)C2=O)cc1 (centres undefined)
[reply] inactive

[ask] Param item: CCN(CC)c1ccc(S(=O)(=O)N2CCCCC2)cc1NC(=O)C1=COCCO1
[reply] inactive

[ask] Param item: CCCCC(=O)Nc1ccc2c(c1)C(=O)NC2=O
[reply] inactive

[ask] Param item: CN/C(=C\[N+](=O)[O-])NCCSCc1csc(CN(C)C)n1
[reply] inactive

[ask] Param item: Brc1ccc(Nc2c3c(nc4ncnn24)CCC3)cc1
[reply] inactive

[ask] Param item: COC(=O)c1ccc(/C=C2/C(=O)Oc3ccccc32)cc1
[reply] inactive

[ask] Param item: Cc1cc(C)nc(SCC(=O)c2ccc(Cl)cc2)n1
[reply] inactive

[ask] Param item: Cc1cc(O)c(Sc2ccccc2)c(=O)o1
[reply] inactive

[ask] Param item: COc1cc(F)c(C2=CC(=O)CC(C)(C)C2)cc1F
[reply] inactive

[ask] Param item: CC(C)=NN1C(=O)c2ccccc2NC1(C)C
[reply] inactive

[ask] Param item: CNS(=O)(=O)c1cccc(C(=O)OCCCC(=O)c2ccccc2)c1
[reply] inactive

[ask] Param item: Cc1cccc(NC(=O)CSc2nnc(CCNC(=O)OC(C)(C)C)o2)c1C
[reply] inactive
